Origin of the recorded values: patent US6610665B1

Answer each item with its documented A1, EC50 as a ratio of that of NECA.
Molecular target: adenosine 1 receptor (Homo sapiens)
Construct: expressed in transfected cells; host or cells: CHO cells
Sequence (P30542 1-326): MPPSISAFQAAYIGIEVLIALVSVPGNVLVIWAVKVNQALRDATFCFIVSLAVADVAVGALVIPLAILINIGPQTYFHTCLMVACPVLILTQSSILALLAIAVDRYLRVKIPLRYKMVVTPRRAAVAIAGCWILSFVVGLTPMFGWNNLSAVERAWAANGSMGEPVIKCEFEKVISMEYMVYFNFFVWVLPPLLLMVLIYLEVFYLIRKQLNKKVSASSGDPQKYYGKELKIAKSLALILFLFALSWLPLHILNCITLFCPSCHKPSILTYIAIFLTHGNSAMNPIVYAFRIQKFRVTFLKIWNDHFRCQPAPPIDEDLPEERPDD
Experiment: Agonist activity, CHO cells transfected with human adenosine receptor and CRE-SPAP reporter; forskolin-enhanced cAMP (A1)
Assay type: cell-based
Conditions: ratio to NECA; * data are minimum values since preparation was found, after testing, to contain an inactive impurity

In the examples that follow, each entry is paired with its recorded A1, EC50 as a ratio of that of NECA.
# compound, testedSystem, result
rows = [
    ("CCc1noc([C@H]2O[C@@H](n3cnc4c(NC(CC)CC)nc(N[C@H]5CC[C@H](N)CC5)nc43)[C@H](O)[C@@H]2O)n1.O=CO", "adenosine 1 receptor (Homo sapiens)", 989.5),
    ("Cc1noc(C2OC(n3cnc4c(N)nc(NC(CO)Cc5ccccc5)nc43)C(O)C2O)n1 (stereo not drawn)", "adenosine 1 receptor (Homo sapiens)", 1863.5),
    ("CCc1noc(C2OC(n3cnc4c(NC(CC)CC)nc(NC5CCNC5)nc43)C(O)C2O)n1 (stereo not drawn)", "adenosine 1 receptor (Homo sapiens)", 263.14),
]

As a next step, examine the compound that follows.
Incoming: Sample Cc1noc(C2OC(n3cnc4c(NCC(c5ccccc5)c5ccccc5)nc(NCCc5c[nH]cn5)nc43)C(O)C2O)n1 (stereo not drawn) — what was its A1, EC50 as a ratio of that of NECA?
Outgoing: 3270.8

---

Target: adenosine 1 receptor (Homo sapiens)
Construct: expressed in transfected cells; host or cells: CHO cells
Sequence (P30542 1-326): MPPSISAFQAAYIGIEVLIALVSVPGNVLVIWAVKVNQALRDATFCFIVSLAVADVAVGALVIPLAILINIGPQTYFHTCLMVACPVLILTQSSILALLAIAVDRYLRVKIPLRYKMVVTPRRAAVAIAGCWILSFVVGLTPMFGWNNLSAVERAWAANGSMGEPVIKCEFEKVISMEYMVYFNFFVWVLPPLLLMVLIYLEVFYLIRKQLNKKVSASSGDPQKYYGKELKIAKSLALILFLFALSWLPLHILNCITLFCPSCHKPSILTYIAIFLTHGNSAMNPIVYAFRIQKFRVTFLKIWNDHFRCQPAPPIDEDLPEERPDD
Assay: Agonist activity, CHO cells transfected with human adenosine receptor and CRE-SPAP reporter; forskolin-enhanced cAMP (A1)
Format: cell-based
Conditions: ratio to NECA; CHO cells, SPAP readout
Experimental: (1) Agonist activity against adenosine 2a, adenosine 1 and adenosine 3 receptor subtypes. Agonist selectivity of compounds against other human adenosine receptors is determined using Chinese hamster ovary (CHO) cells transfected with the gene for the relevant human adenosine receptor following a method based on that of Castanon and Spevak, 1994. […] EC50 values for compounds may then be determined as a ratio to that of the non-selective agonist N-ethyl carboxamide adenosine (NECA).
Answer each item with its documented A1, EC50 as a ratio of that of NECA.

In the examples that follow, each entry is paired with its recorded A1, EC50 as a ratio of that of NECA.
# compound, testedSystem, A1, EC50 as a ratio of that of NECA
records = [
    ("CCC(CC)Nc1nc(NCCN2CCOCC2)nc2c1ncn2C1OC(c2nc(C3CC3)no2)C(O)C1O.O=CO.O=CO (stereo not shown)", "adenosine 1 receptor (Homo sapiens)", ">9364"),
    ("Cc1noc([C@H]2O[C@@H](n3cnc4c(N)nc(NCCc5ccccc5)nc43)[C@H](O)[C@@H]2O)n1.O=C(O)C(F)(F)F", "adenosine 1 receptor (Homo sapiens)", ">5511"),
    ("CCc1noc([C@H]2O[C@@H](n3cnc4c(NCC(c5ccccc5)c5ccccc5)nc(NCCc5ccc(OC)c(OC)c5)nc43)[C@H](O)[C@@H]2O)n1.O=CO", "adenosine 1 receptor (Homo sapiens)", ">6064"),
]

Would you be so kind as to report A1, EC50 as a ratio of that of NECA for each listed record?
1. CCC(CC)Nc1nc(NCCc2cn(C)cn2)nc2c1ncn2[C@@H]1O[C@H](c2nc(C)no2)[C@@H](O)[C@H]1O.O=CO
2. CCC(CC)Nc1nc(NCCc2ccccn2)nc2c1ncn2[C@@H]1O[C@H](c2nc(C3CC3)no2)[C@@H](O)[C@H]1O.O=CO.O=CO
3. CCc1noc([C@H]2O[C@@H](n3cnc4c(NCC(c5ccccc5)c5ccccc5)nc(Nc5ccc(F)cc5)nc43)[C@H](O)[C@@H]2O)n1.O=CO

Outgoing:
1. >4587
2. >10402
3. >6131

---

target: adenosine 2a receptor (Homo sapiens); construct: expressed in transfected cells; host or cells: CHO cells; assay: Agonist activity, CHO cells transfected with human adenosine receptor and CRE-SPAP reporter; basal cAMP (A2a); format: cell-based; settings: ratio to NECA; CHO cells, SPAP readout
Sequence (P29274 whole entry): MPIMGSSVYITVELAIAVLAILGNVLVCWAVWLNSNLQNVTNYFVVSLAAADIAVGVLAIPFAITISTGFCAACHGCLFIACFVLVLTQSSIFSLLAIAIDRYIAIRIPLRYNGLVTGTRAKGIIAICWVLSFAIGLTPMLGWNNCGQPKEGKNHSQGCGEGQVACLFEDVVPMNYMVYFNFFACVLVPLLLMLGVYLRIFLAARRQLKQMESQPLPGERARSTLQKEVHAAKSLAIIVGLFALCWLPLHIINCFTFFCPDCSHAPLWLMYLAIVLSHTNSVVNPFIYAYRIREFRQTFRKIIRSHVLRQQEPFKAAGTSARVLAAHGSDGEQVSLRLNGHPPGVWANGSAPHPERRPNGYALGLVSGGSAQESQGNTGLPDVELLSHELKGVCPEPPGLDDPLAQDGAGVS
observedProperty: A2a, EC50 as a ratio of that of NECA
Numbers only.

# compound, number
records = [
    ("CCc1noc([C@H]2O[C@@H](n3cnc4c(NCC(c5ccccc5)c5ccccc5)nc(NCCc5cn(C)cn5)nc43)[C@H](O)[C@@H]2O)n1.O=C(O)C(F)F.O=C(O)C(F)F", 0.64),
    ("CCC(CC)Nc1nc(NCCc2cn(C)cn2)nc2c1ncn2[C@@H]1O[C@H](c2nc(C)no2)[C@@H](O)[C@H]1O.O=CO", 0.66),
    ("CCc1noc([C@H]2O[C@@H](n3cnc4c(NCC(c5ccccc5)c5ccccc5)nc(NCCNc5ccccn5)nc43)[C@H](O)[C@@H]2O)n1.O=CO.O=CO", 4.89),
    ("CCC(CC)Nc1nc(NCCc2ccccn2)nc2c1ncn2[C@@H]1O[C@H](c2nc(C3CC3)no2)[C@@H](O)[C@H]1O.O=CO.O=CO", 49.45),
    ("CCc1noc(C2OC(n3cnc4c(NCC(c5ccccc5)c5ccccc5)nc(NC(CO)C(C)C)nc43)C(O)C2O)n1 (stereo not drawn)", 6.12),
]

As a next step, examine the compound that follows.
Incoming: Please state recorded A2a, EC50 as a ratio of that of NECA (tested on adenosine 2a receptor (Homo sapiens)) of CCc1noc(C2OC(n3cnc4c(NCC(c5ccccc5)c5ccccc5)nc(NC5CCC(N)CC5)nc43)C(O)C2O)n1.O=CO.O=CO (stereo not drawn)
Outgoing: 5.37
